System: human erythrocytes
Test Details: Haemolytic assay
Type: cell-based
Settings: red cells of human, 1 h
Ends that are not written are not given here.
Observable: Haemolytic activity HC50

Examples with their reported Haemolytic activity HC50 follow.
GIWKKWIKKWLNVLKNLF-NH2 [KU2]    57.71 ± 9.80 mg/L
GVIKAAKKVVNVLKNLF-NH2 [Upn-lys4]    >256 mg/L
GVIKAAKKVVKVLKKLF-NH2 [Upn-lys6]    >256 mg/L
GIWKKWIKKWLKVLKNLF-NH2 [KU3]    55.20 ± 11.90 mg/L
GVIKAAKKVVKVLKNLF-NH2 [Upn-lys5]    >256 mg/L

Please look at the following substance next.
-- ask Tell me its Haemolytic activity HC50 given GIWKKWIKKVVNVLKNLF-NH2 [KU1] as the entry.
-- reply 58.19 ± 2.04 mg/L

====

This listing pairs substances with measured % killing.
Test system: C. albicans SC5314
Test Details: Time killing assay
Format: cell-based, Candida albicans
Settings: SC5314, 6 h, 2
Ends that are not written are not given here.
Report only the number, with the unit % understood.

Examples with their reported % killing follow.
GIWKKWIKKWLKVLKNLF-NH2 [KU3]    99.94
GVIKAAKKVVKVLKNLF-NH2 [Upn-lys5]    99.99
GIWKKWIKKWLNVLKNLF-NH2 [KU2]    99.73
GIWKKWIKKVVNVLKNLF-NH2 [KU1]    99.82

Please look at the following substance next.
-- ask Tell me its % killing given GVIKAAKKVVNVLKNLF-NH2 [Upn-lys4] as the entry.
-- reply 99.97

====

Tested on: Het-1A cell line
Test Details: cells
Settings: 48 h
Ends that are not written are not given here.
Observable: IC50 (mg/L)
Report only the number, with the unit mg/L understood.

Examples with their reported IC50 follow.
GVIKAAKKVVKVLKNLF-NH2 [Upn-lys5]    9.83
GVIKAAKKVVNVLKNLF-NH2 [Upn-lys4]    14.71
GIWKKWIKKWLKVLKNLF-NH2 [KU3]    4.62
GIWKKWIKKWLNVLKNLF-NH2 [KU2]    6.03
GIWKKWIKKWLKKLKNLF-NH2 [KU4]    10.47

-- ask Tell me its IC50 given GVIDAAKKVVNVLKNLF-NH2 [Uperin 3.6, reference compound] as the entry.
-- reply 17.94

-- ask Tell me its IC50 given GIWKKWIKKVVNVLKNLF-NH2 [KU1] as the entry.
-- reply 4.59

-- ask Tell me its IC50 given GVIKAAKKVVKVLKKLF-NH2 [Upn-lys6] as the entry.
-- reply 7.92
